Let's look at some molecules and their measured melting point.

COc1ccc(CNC(=O)C2CSC(=NC3CCCCCC3)N2C)cc1.Cl (centres unmarked) [KHG24339]    156 to 159 °C
CCCN1C(=NC2CCCCC2)SCC1CC(=O)NCc1ccc(C)cc1.Cl (centres unmarked) [KHG24293]    189.5 to 191.2 °C
Br.CCc1ccc(NC(=O)C2CSC(=NC3CCCCCC3)N2C)cc1 (centres unmarked)    278 to 279 °C
CC1SC(=NC2CCCCCC2)N(C)C1CC(=O)Nc1ccc(Cl)cc1.Cl (centres unmarked) [KHG24643]    240 to 242 °C
CC(C)c1ccc(N=C2SCC(CC(=O)Nc3ccc(Cl)cc3F)N2C)cc1.Cl (centres unmarked) [KHG23071]    237 to 238 °C
CCOC(=O)CCOc1cccc(NC(=O)CC2CSC(=NC3CCCCC3)N2C)c1.Cl (centres unmarked) [KHG24085]    241 to 242 °C
CN1C(=NC2CCCCCC2)SCC1C(=O)Nc1ccccc1 (centres unmarked) [KHG24622]    208 °C
CN1C(=NC2CCCCC2)SCC1CC(=O)NCc1ccc(F)cc1.Cl (centres unmarked) [KHG24112]    200 to 201 °C
Cl.O=C(CC1CSC(=NC2CCCCC2)N1Cc1ccccc1)Nc1cc([N+](=O)[O-])ccc1F (centres unmarked)    166.4 °C
CC(C)N1C(=NC23CC4CC(CC(C4)C2)C3)SCC1CC(=O)Nc1ccc(Oc2ccccc2)cc1.Cl (centres unmarked) [KHG24833]    164 °C

// next item, melting point requested
Input line: In one line, give reported melting point of the entry CN1C(=NC23CC4CC(CC(C4)C2)C3)SCC1CC(=O)Nc1cc(Cl)cc(Cl)c1.Cl (centres unmarked) [KHG24417] .
Output line: 238 to 240 °C

###

# test-system: α1G T-type calcium channel (Homo sapiens, UniProt O43497)
# Construct: host or cells: HEK293
# Sequence (O43497 whole entry): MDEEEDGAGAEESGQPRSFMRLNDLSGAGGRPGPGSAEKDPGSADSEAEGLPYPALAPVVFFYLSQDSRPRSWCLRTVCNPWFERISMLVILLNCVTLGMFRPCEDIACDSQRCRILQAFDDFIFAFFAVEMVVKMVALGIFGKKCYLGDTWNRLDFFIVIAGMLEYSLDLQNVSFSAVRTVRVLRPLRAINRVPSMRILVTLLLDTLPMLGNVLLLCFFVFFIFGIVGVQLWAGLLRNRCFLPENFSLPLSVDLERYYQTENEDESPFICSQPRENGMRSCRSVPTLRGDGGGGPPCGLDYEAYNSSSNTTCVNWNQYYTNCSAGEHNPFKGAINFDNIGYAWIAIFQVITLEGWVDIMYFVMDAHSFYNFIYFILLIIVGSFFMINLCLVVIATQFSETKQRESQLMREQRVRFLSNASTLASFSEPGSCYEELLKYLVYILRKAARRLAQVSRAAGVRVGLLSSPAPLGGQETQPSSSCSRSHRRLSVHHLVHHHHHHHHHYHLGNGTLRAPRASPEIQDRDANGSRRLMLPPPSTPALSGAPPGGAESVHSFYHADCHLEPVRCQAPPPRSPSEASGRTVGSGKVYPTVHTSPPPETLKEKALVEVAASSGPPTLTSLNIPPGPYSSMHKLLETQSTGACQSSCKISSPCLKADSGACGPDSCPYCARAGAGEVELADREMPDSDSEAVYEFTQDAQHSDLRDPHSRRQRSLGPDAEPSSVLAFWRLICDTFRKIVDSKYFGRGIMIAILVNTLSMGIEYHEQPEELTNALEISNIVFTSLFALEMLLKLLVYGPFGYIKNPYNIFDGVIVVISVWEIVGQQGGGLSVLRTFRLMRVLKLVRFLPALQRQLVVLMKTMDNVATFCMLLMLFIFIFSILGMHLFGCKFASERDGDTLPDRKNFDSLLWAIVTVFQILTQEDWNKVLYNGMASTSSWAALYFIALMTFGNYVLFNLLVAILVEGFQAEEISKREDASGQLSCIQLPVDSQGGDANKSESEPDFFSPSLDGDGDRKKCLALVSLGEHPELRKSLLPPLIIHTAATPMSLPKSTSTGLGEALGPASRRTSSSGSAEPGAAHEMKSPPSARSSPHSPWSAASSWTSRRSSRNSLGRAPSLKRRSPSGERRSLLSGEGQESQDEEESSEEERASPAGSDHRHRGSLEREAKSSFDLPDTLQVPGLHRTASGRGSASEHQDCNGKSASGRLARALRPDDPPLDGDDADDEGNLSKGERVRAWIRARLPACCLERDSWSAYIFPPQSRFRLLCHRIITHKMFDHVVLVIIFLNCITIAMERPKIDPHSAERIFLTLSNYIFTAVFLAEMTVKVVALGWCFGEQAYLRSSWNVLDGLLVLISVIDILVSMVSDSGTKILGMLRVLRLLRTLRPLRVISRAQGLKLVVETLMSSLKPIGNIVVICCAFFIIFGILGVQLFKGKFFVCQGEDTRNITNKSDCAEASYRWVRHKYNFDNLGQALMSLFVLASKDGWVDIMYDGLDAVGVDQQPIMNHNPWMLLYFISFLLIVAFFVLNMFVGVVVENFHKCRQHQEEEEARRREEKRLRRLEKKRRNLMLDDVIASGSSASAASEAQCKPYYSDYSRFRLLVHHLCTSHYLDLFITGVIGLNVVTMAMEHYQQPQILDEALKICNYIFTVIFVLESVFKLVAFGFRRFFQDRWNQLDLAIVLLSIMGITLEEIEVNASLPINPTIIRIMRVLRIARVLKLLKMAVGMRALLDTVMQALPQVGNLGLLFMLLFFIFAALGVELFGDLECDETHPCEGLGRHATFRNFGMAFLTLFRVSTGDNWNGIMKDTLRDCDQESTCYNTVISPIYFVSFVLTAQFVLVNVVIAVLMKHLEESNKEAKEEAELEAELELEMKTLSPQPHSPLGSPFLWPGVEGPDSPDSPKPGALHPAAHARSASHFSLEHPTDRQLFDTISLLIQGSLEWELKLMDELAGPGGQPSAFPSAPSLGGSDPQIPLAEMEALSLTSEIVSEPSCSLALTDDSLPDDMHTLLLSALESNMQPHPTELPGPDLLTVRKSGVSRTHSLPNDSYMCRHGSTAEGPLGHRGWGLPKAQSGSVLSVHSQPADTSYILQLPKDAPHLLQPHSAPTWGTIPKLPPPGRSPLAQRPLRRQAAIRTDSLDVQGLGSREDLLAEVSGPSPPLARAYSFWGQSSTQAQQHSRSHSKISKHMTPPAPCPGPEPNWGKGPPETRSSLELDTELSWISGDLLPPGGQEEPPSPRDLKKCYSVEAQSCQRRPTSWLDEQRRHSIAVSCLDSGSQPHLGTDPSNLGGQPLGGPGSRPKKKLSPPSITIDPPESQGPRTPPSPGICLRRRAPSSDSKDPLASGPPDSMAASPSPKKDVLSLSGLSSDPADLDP
# test-description: Assay for % inhibiting activity against T-type calcium channel using FDSS6000 (fluo-3 calcium imaging, KCl activation)
# Type: cell-based
# assay-context: HEK293, 10 μM; HEK293 cells stably expressing α1G T-type calcium channel and Kir2.1; compounds of the examples; read-out: FDSS (% inhibition)/10uM
Recorded inhibition at 10 µM for the following molecules
Just the number in %, nothing appended.

Below: 4 molecules and their reported inhibition at 10 µM.
CN1C(=NC2CCCC2)SCC1CC(=O)Nc1cc(Cl)cc(Cl)c1.Cl (centres unmarked) [KHG24100, hydrochloride]    60.8
CCCCc1ccc(NC(=O)CC2CSC(=NC34CC5CC(CC(C5)C3)C4)N2CC)cc1.Cl (centres unmarked) [KHG24820, hydrochloride]    58
CC(C)c1cccc(NC(=O)CC2CSC(=NC3CCCCC3)N2C)c1.Cl (centres unmarked) [KHG24528, hydrochloride]    54.2
CCN1C(=NC2CCCCC2)SCC1CC(=O)Nc1ccc(F)cc1.Cl (centres unmarked) [KHG24403, hydrochloride]    49.1

Let us move to another entry and its inhibition at 10 µM.
Input line: Determine from records and report inhibition at 10 µM for CN1C(=NC2CCCCC2)SCC1CC(=O)Nc1cc(Cl)ccc1Cl.Cl (centres unmarked) [KHG24532, hydrochloride]
Output line: 52.5
